B1: PSD2 (parent)
chain: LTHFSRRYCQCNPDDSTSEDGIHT

Variants of: B1
Assay: protein stability index of a GFP-peptide fusion (GPS, HEK-293T) (PSI 1-6); higher = more stable;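 also: lentivirally expressed fusions sorted by FACS into six bins by GFP to DsRed ratio, PSI derived from sequencing read proportions per bin multiplied by bin number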
Details: c terminus: a fixed tail appended
Quantity Measured: protein stability index
Please give only the number in your answer, with no unit.

Ask | Dear colleague, please send me the reported protein stability index for "D15C" when you can.
Reply | 2.91

Ask | Dear colleague, please send me the reported protein stability index for "C9R" when you can.
Reply | 4.1

Ask | Dear colleague, please send me the reported protein stability index for "T17D" when you can.
Reply | 4.02

Ask | Dear colleague, please send me the reported protein stability index for "R6V" when you can.
Reply | 3.08
